# Test system: Staphylococcus sp.
# assay_notes: Antibacterial activity against methicillin-susceptible coagulase-negative Staphylococcus sp. assessed as percent susceptible isolates by CLSI dilution method
# Format: functional
Assign class by Activity: not lower than 70% means fulfilled; lower than 70% means not fulfilled.

| structure_notation | qualitative_label |
| --- | --- |
| Cc1onc(-c2ccccc2)c1C(=O)N[C@@H]1C(=O)N2[C@@H]1SC(C)(C)[C@@H]2C(=O)O | not fulfilled |
| C[C@H]1COc2c(N3CCN(C)CC3)c(F)cc3c(=O)c(C(=O)O)cn1c23.C[C@H]1COc2c(N3CCN(C)CC3)c(F)cc3c(=O)c(C(=O)O)cn1c23.O | not fulfilled |
| CN[C@H](CC(C)C)C(=O)N[C@H]1C(=O)N[C@@H](CC(N)=O)C(=O)N[C@H]2C(=O)N[C@H]3C(=O)N[C@H](C(=O)N[C@H](C(=O)O)c4cc(O)cc(O)c4-c4cc3ccc4O)[C@H](O)c3ccc(c(Cl)c3)Oc3cc2cc(c3O[C@@H]2O[C@H](CO)[C@@H](O)[C@H](O)[C@H]2O[C@H]2C[C@](C)(N)[C@H](O)[C@H](C)O2)Oc2ccc(cc2Cl)[C@H]1O | fulfilled |
| CC(=O)NC[C@H]1CN(c2ccc(N3CCOCC3)c(F)c2)C(=O)O1 | fulfilled |
| CC[C@H]1OC(=O)[C@H](C)[C@@H](O[C@H]2C[C@@](C)(OC)[C@@H](O)[C@H](C)O2)[C@H](C)[C@@H](O[C@@H]2O[C@H](C)C[C@H](N(C)C)[C@H]2O)[C@](C)(O)C[C@@H](C)C(=O)[C@H](C)[C@@H](O)[C@]1(C)O | not fulfilled |
| CCC[C@@H]1C[C@@H](C(=O)N[C@@H]([C@H]2O[C@H](SC)[C@H](O)[C@@H](O)[C@H]2O)[C@H](C)Cl)N(C)C1 | not fulfilled |
| CN(C)[C@@H]1C(O)=C(C(N)=O)C(=O)[C@@]2(O)C(O)=C3C(=O)c4c(O)cccc4[C@@](C)(O)[C@H]3C[C@@H]12 | not fulfilled |
